System: A549
Method Summary: Inhibition of IL-1-alpha-stimulated ICAM1 expression in human A549 cells
Assay type: functional, cell-based
// IC50 lookup, one value per entry
Assay Endpoint: IC50 (µg/mL)

• O=C(CCCCCCCCCCCCc1ccccc1)C1=C(O)CCC(O)C1=O (centres undefined) = 36.8
• O=C1CCCC2=C1[C@H](O)C[C@H](CCCCCCCCCCCCc1ccc3c(c1)OCO3)O2 = 65.2
• O=C(CCCCCCCCCCCCc1ccc2c(c1)OCO2)C1=C(O)CCC(O)C1=O (centres undefined) = 43.3
• O=C(CCCCCCCCCCCCCCc1ccc2c(c1)OCO2)C1=C(O)CCC(O)C1=O (centres undefined) = 51.4
